test system: Epidermal growth factor receptor (Homo sapiens), P00533 [L858R,T790M]; details: at 1 µM
Sequence (P00533 whole entry T790M/L858R, looked up): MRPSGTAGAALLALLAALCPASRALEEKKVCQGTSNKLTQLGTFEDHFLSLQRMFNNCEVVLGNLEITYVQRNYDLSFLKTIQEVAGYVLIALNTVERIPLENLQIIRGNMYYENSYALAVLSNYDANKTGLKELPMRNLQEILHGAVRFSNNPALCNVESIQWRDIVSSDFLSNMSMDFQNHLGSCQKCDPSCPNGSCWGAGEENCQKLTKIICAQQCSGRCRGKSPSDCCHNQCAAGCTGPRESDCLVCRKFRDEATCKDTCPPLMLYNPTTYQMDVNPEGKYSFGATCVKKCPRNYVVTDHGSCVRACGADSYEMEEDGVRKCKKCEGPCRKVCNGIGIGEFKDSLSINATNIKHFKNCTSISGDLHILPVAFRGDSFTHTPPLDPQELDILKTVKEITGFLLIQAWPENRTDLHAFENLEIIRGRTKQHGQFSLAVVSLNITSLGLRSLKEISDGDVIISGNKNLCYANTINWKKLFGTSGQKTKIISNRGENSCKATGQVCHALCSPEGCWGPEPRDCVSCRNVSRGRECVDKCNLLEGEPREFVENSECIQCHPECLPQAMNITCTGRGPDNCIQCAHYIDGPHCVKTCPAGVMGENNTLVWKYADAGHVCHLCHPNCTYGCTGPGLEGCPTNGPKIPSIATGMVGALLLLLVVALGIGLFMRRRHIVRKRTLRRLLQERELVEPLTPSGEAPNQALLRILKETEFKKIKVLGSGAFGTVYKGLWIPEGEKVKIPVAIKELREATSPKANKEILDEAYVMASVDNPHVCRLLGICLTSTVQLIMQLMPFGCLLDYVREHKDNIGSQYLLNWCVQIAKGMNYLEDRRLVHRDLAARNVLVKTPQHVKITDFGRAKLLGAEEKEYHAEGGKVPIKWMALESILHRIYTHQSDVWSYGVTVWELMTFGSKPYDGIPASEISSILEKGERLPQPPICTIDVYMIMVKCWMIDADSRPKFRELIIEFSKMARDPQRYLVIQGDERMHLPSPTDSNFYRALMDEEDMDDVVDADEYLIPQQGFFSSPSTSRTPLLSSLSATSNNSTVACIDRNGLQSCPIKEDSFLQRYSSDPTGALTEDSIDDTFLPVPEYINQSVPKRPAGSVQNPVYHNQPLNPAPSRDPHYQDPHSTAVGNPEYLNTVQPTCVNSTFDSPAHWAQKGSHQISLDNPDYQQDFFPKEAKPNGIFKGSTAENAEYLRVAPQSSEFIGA
Exercise: for every item that follows, state its recorded inhibition.
Numbers only, in %.

A selection of reference data follows.
What measured inhibition is associated with CCn1c(-c2nonc2N)nc2cnc(Oc3cccc(NC(=O)c4ccc(N(C)C)cc4)c3)cc21 on Epidermal growth factor receptor (Homo sapiens), P00533 [L858R,T790M]?
-0.4

What measured inhibition is associated with COc1cc(/C=N/Nc2ncnc3[nH]ncc23)ccc1O on Epidermal growth factor receptor (Homo sapiens), P00533 [L858R,T790M]?
5.5

What measured inhibition is associated with CS(=O)(=O)CCNCc1ccc(-c2ccc3ncnc(Nc4ccc(OCc5ccccc5)c(C(F)(F)F)c4)c3c2)o1 on Epidermal growth factor receptor (Homo sapiens), P00533 [L858R,T790M]?
0.97

// batch mode: one inhibition value per listed entry
1. CC1=C(C(=O)Nc2cc(Cl)c3[nH]ncc3c2)C(c2ccc(C(F)(F)F)cc2)CC(=O)N1 (stereo not given)
2. CN(C)CCOc1ccc(-c2nc(-c3ccncc3)c(-c3ccc4c(c3)CC/C4=N\O)[nH]2)cc1

1. 1.94
2. 6.66

The origin of these recorded values is ChEMBL document CHEMBL1961873.
